molecular target: neuropilin-1 (NRP1) on HEK293 cells overexpressing NRP1 (UniProt O14786); test: flow cytometry, HEK293-NRP1 vs HEK293
Task for the reader: assign each of the following binders its reported 100 nM FACS (MFI Ratio).
Give your answer as a number; write no unit.

query: // returns reported 100 nM FACS (MFI Ratio) for input NRP1-58 (VHH) VHH: EVQLVESGGGLVQPGGSLRLSCAASGRTFNRYPMGWFRQAPGKEREWVAGINSGGGTWYADSVKGRFTISADNSKNTAYLQMNSLKPEDTAVYYCAIHTSREIWGQGTLVTVSS
result: 1.9

query: Now try NRP1-27 (VHH) VHH: EVQLVESGGGLVQPGGSLRLSCAASGFRFGDYPMGWFRQAPGKEREFVSAISWSGGSTVYADSVKGRFTISADNSKNTAYLQMNSLKPEDTAVYYCALGPVRRSRLEWGQGTLVTVSS .
result: 2.1

query: Now try NRP1-263 (antibody, IgG2, V domains shown) VH: EVQLLESGGGLVQPGGSLRLSCAASGFTFKKYAMSWVRQAPGKGLEWVSTISGSGRSTYYADSVKGRFTISRDNSKNTLYLQMNSLRAEDTAVYYCARDLARGTMPRGVIIPHNWFDPWGQGTLVTVSS VL: DIQMTQSPSSLSASVGDRVTITCRASQTISNYLNWYQQKPGKAPKLLIYGATSLQSGVPSRFSGSGSGTDFTLTISSLQPEDFATYYCQQSYNTPTTFGGGTKVEIK .
result: 1.9

query: Now try NRP1-62 (VHH) VHH: EVQLVESGGGLVQPGGSLRLSCAASGSSLSNYTMGWFRQAPGKERELVATIWWTVGAPYYADSVKGRFTISADNSKNTAYLQMNSLKPEDTAVYYCAAYQRGWGDWGQGTLVTVSS .
result: 1.5

query: Now try NRP1-297 (antibody, IgG2, V domains shown) VH: EVQLLESGGGLVQPGGSLRLSCAASGFTFGRYAMSWVRQAPGKGLEWVSSISGSGGSTYYTDSVKGRFTISRDNSKNTLYLQMNSLRAEDTAVYYCVRALAGRRDHWGQGTLVTVSS VL: DIQMTQSPSSLSASVGDRVTITCRTSQRISTSLNWYQQKPGKAPKLLIYGASNLQSGAPSRFSGSGSGTDFTLTISSLQPEDFATYYCQQSYFTPITFGGGTKVEIK .
result: 1.6

query: Now try NRP1-296 (antibody, IgG2, V domains shown) VH: EVQLLESGGGLVQPGGSLRLSCAASGFTFSGHAMSWVRQAPGKGLEWVSGISGSGGKIYYADSVKGRFTISRDNSKNTLYLQMNSLRAEDTAVYYCTRDVRSKDYVRGSSRYHGGMDVWGQGTLVTVSS VL: DIQMTQSPSSLSASVGDRVTITCRASHSISRYLNWYQQKPGKAPKLLIYSASSLRSGVPSRFSGSGSGTDFTLTISSLQPEDFATYYCQQRYITPWTFGGGTKVEIK .
result: 1.5
